System: Escherichia coli TOP10
assay: shrunken log2 fold change of peptide-encoding DNA abundance (4.5 h post-induction vs induction); higher = less antimicrobial activity (less host growth inhibition)
condition: time post-induction: 4.5 h; library: site-saturation at positions 5, 18, 19, 20
In this section, each of the sequences is paired with its reported shrunken log2 fold change.
API doc: respond with a numeric literal and nothing else, no unit.

Some solved cases for reference:
Inquiry: Item `RRIRIRPPRLPRPRPRPRIHPRP` : provide shrunken log2 fold change
Reply text: -0.287

Inquiry: Look up and state reported shrunken log2 fold change for `RRIRRRPPRLPRPRPRPWRSPRP`
Reply text: 0.181

Inquiry: Input `RRIRDRPPRLPRPRPRPDQDPRP` , output reported shrunken log2 fold change.
Reply text: 0.399

Inquiry: Input `RRIRMRPPRLPRPRPRPCNAPRP` , output reported shrunken log2 fold change.
Reply text: 0.0226

Inquiry: Quote shrunken log2 fold change reported for `RRIRWRPPRLPRPRPRPKAKPRP` please.
Reply text: 0.166

***
Inquiry: Give me measured shrunken log2 fold change, please, for this sequence: `RRIRGRPPRLPRPRPRPWSKPRP`
Reply text: -0.423

Inquiry: Tell me measured shrunken log2 fold change for `RRIRLRPPRLPRPRPRPSCGPRP` please.
Reply text: -0.583

Inquiry: For the sequence `RRIRQRPPRLPRPRPRPCCRPRP` , give its measured shrunken log2 fold change value.
Reply text: -0.0851

====

Tested on: Escherichia coli TOP10
assay: shrunken log2 fold change of peptide-encoding DNA abundance (4.5 h post-induction vs induction); higher = less antimicrobial activity (less host growth inhibition)
condition: time post-induction: 4.5 h; library: site-saturation at positions 5, 18, 19, 20
shrunken log2 fold change below -0.03 gives No; shrunken log2 fold change at or above it gives Yes.

Inquiry: Item `RRIRPRPPRLPRPRPRPNHEPRP` with shrunken log2 fold change of -0.03 or above?
Reply text: No

Inquiry: Does `RRIRSRPPRLPRPRPRPWYYPRP` have a reported shrunken log2 fold change of at least -0.03?
Reply text: No

Inquiry: Record `RRIRCRPPRLPRPRPRPNDTPRP` ; criterion: shrunken log2 fold change no lower than -0.03. Met?
Reply text: No

Inquiry: Exam item: decide whether the reported shrunken log2 fold change for `RRIRKRPPRLPRPRPRPFTPPRP` is at least -0.03.
Reply text: Yes

Continuing:
Inquiry: API: above_or_equal(metric=shrunken log2 fold change, cutoff=-0.03) for item `RRIRYRPPRLPRPRPRPGFGPRP`
Reply text: No

Inquiry: Confirm if shrunken log2 fold change reported for the sequence `RRIRKRPPRLPRPRPRPWFIPRP` is -0.03 or above.
Reply text: No

Inquiry: hey, is shrunken log2 fold change for this one >= -0.03? `RRIRERPPRLPRPRPRPIVNPRP`
Reply text: No

Inquiry: Form field: shrunken log2 fold change at least -0.03? Entry: `RRIRYRPPRLPRPRPRPPGPPRP`
Reply text: Yes

Inquiry: For this sequence, is measured shrunken log2 fold change -0.03 or higher? `RRIRQRPPRLPRPRPRPVANPRP`
Reply text: Yes

Inquiry: Could you tell me if the measured shrunken log2 fold change of `RRIRHRPPRLPRPRPRPMIPPRP` reaches -0.03 or more?
Reply text: Yes

Inquiry: I'd appreciate it if you could say whether `RRIRARPPRLPRPRPRPDHAPRP` has shrunken log2 fold change at least equal to -0.03.
Reply text: Yes

Inquiry: State whether the measured shrunken log2 fold change reaches -0.03, counting equality as reaching it, for `RRIRCRPPRLPRPRPRPHRSPRP`
Reply text: No

Inquiry: Does shrunken log2 fold change meet or surpass -0.03 for `RRIRERPPRLPRPRPRPNLFPRP` ?
Reply text: Yes

Inquiry: Does the sequence `RRIRYRPPRLPRPRPRPALMPRP` have recorded shrunken log2 fold change that is -0.03 or more?
Reply text: No

Inquiry: Dear colleague, could you confirm whether `RRIRDRPPRLPRPRPRPTFAPRP` has shrunken log2 fold change at or above -0.03?
Reply text: Yes

Inquiry: // inclusive: shrunken log2 fold change at least -0.03? input: `RRIRSRPPRLPRPRPRPAYWPRP`
Reply text: Yes

Inquiry: In plain terms: is recorded shrunken log2 fold change at least -0.03 for `RRIRHRPPRLPRPRPRPFQLPRP` ?
Reply text: No

Inquiry: Could you please find out whether `RRIRPRPPRLPRPRPRPPPEPRP` has shrunken log2 fold change that meets -0.03 or exceeds it?
Reply text: Yes

Inquiry: API: above_or_equal(metric=shrunken log2 fold change, cutoff=-0.03) for item `RRIRWRPPRLPRPRPRPFPYPRP`
Reply text: No

Inquiry: Threshold query (shrunken log2 fold change >= -0.03) on `RRIRFRPPRLPRPRPRPTICPRP`
Reply text: No

Inquiry: Check the entry `RRIRYRPPRLPRPRPRPRMEPRP` : does shrunken log2 fold change equal or exceed -0.03?
Reply text: No

====

Examples of sequences with documented shrunken log2 fold change follow.
Tested on: Escherichia coli TOP10
assay: shrunken log2 fold change of peptide-encoding DNA abundance (4.5 h post-induction vs induction); higher = less antimicrobial activity (less host growth inhibition)
condition: time post-induction: 4.5 h; library: site-saturation at positions 5, 18, 19, 20

Inquiry: Input `RRIRVRPPRLPRPRPRPYWNPRP` , output reported shrunken log2 fold change.
Reply text: -0.574

Inquiry: Recall and state the measured shrunken log2 fold change for `RRIRARPPRLPRPRPRPFVCPRP` .
Reply text: -0.476

Inquiry: Assign shrunken log2 fold change to the following record: `RRIRDRPPRLPRPRPRPIPCPRP`
Reply text: -0.0802

Inquiry: Hello, please tell me recorded shrunken log2 fold change for this one: `RRIRERPPRLPRPRPRPQKAPRP`
Reply text: -0.0836

Inquiry: Give the reported value of shrunken log2 fold change for this record: `RRIRFRPPRLPRPRPRPMTFPRP`
Reply text: -0.0585

Inquiry: Input `RRIRGRPPRLPRPRPRPVMCPRP` , output reported shrunken log2 fold change.
Reply text: 0.522

Inquiry: Report shrunken log2 fold change for `RRIRHRPPRLPRPRPRPMLWPRP`
Reply text: 0.0253

Inquiry: Determine its reported shrunken log2 fold change: `RRIRDRPPRLPRPRPRPWIAPRP`
Reply text: -0.117

***
Inquiry: For the sequence `RRIRKRPPRLPRPRPRPMHGPRP` , report shrunken log2 fold change.
Reply text: 0.272

Inquiry: Complete the entry with shrunken log2 fold change for `RRIRKRPPRLPRPRPRPLHMPRP`
Reply text: 0.102

Inquiry: Identify shrunken log2 fold change associated with the sequence `RRIRVRPPRLPRPRPRPCRWPRP`
Reply text: 0.182

Inquiry: For the sequence `RRIRMRPPRLPRPRPRPDVDPRP` , report shrunken log2 fold change.
Reply text: 0.104

Inquiry: Return shrunken log2 fold change (reported value) for this sequence: `RRIRSRPPRLPRPRPRPYASPRP`
Reply text: 0.0607

Inquiry: Specify reported shrunken log2 fold change for the sequence shown: `RRIRCRPPRLPRPRPRPSERPRP`
Reply text: -0.0162

Inquiry: Give me measured shrunken log2 fold change, please, for this sequence: `RRIRSRPPRLPRPRPRPTQPPRP`
Reply text: 0.215

====

System: Escherichia coli TOP10
assay: shrunken log2 fold change of peptide-encoding DNA abundance (4.5 h post-induction vs induction); higher = less antimicrobial activity (less host growth inhibition)
condition: time post-induction: 4.5 h; library: site-saturation at positions 5, 18, 19, 20
Given measured shrunken log2 fold change, output condition met if it is greater than or equal to 0.07 and condition not met if not.

Answered examples (2):
Inquiry: Identify whether the reported shrunken log2 fold change of the following sequence is 0.07 or greater: `RRIRRRPPRLPRPRPRPVMDPRP`
Reply text: condition not met

Inquiry: API: above_or_equal(metric=shrunken log2 fold change, cutoff=0.07) for item `RRIRNRPPRLPRPRPRPRMNPRP`
Reply text: condition not met

***
Inquiry: Does the sequence `RRIRHRPPRLPRPRPRPGAWPRP` have recorded shrunken log2 fold change that is 0.07 or more?
Reply text: condition met

Inquiry: Item `RRIRCRPPRLPRPRPRPIWFPRP` with shrunken log2 fold change of 0.07 or above?
Reply text: condition met

Inquiry: In plain terms: is recorded shrunken log2 fold change at least 0.07 for `RRIRKRPPRLPRPRPRPLRLPRP` ?
Reply text: condition met

Inquiry: Check if shrunken log2 fold change >= 0.07 (inclusive). Item: `RRIRGRPPRLPRPRPRPFAYPRP`
Reply text: condition met

Inquiry: Is shrunken log2 fold change for `RRIRSRPPRLPRPRPRPFDCPRP` at or above 0.07?
Reply text: condition not met

====

System: Escherichia coli TOP10;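 note: peptides expressed intracellularly from a pBAD plasmid library in pooled LB shake-flask culture, induced with 0.3% L-arabinose, DNA abundance read by NGS, three biological replicates, DESeq2 with apeglm shrinkage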
assay: shrunken log2 fold change of peptide-encoding DNA abundance (4.5 h post-induction vs induction); higher = less antimicrobial activity (less host growth inhibition)
condition: time post-induction: 4.5 h; library: site-saturation at positions 5, 18, 19, 20
endpoint: shrunken log2 fold change
Reply briefly: the number, and no unit.

Field: example entries. Status: answers known.
Inquiry: Let me know recorded shrunken log2 fold change for `RRIRQRPPRLPRPRPRPMKQPRP` , thanks.
Reply text: -0.0134

Inquiry: Output measured shrunken log2 fold change for this item: `RRIRIRPPRLPRPRPRPEVIPRP`
Reply text: -0.0583

Inquiry: Give shrunken log2 fold change for the following sequence: `RRIRERPPRLPRPRPRPPRVPRP`
Reply text: 0.342

Inquiry: Could you please provide reported shrunken log2 fold change for `RRIRIRPPRLPRPRPRPPLCPRP` ? Thanks!
Reply text: 0.142

Inquiry: Quick one: give measured shrunken log2 fold change for `RRIRHRPPRLPRPRPRPMAGPRP`
Reply text: -0.0581

Inquiry: Give a short answer stating reported shrunken log2 fold change for `RRIRFRPPRLPRPRPRPHTAPRP` .
Reply text: -0.337

Inquiry: Please look at this sequence and report its shrunken log2 fold change: `RRIRFRPPRLPRPRPRPAWTPRP`
Reply text: -0.0896

Query sequence follows.
Inquiry: Note down shrunken log2 fold change recorded for `RRIRMRPPRLPRPRPRPHKTPRP`
Reply text: 0.0147
